Where do the numbers come from? From patent US20060069132A1.

compounds and their reported Oat, Wild plant response rating
- Test system: wild oat
- testProtocol: Test B postemergence herbicide test
- Format: in vivo, Avena fatua
- assayConditions: 125 g ai/ha; visual rating, scale 0 (no effect) to 100 (complete control); postemergence
Give your answer as a number; write no unit.

compound: CCNC(=O)c1cccc(NC(=O)c2nn(C(C)C)nc2C)c1
Oat, Wild plant response rating: 0
//
compound: C#CCNC(=O)c1cccc(NC(=O)c2nn(C(C)(C)C)nc2CC)c1
Oat, Wild plant response rating: 10
//
compound: CCOc1ccc(F)c(NC(=O)c2cc(C(C)(C)C)nn2CC)c1
Oat, Wild plant response rating: 20

Give recorded Oat, Wild plant response rating. `CCc1nn(C(C)C)nc1C(=O)Nc1cccc(C(=O)N2CC=CC2)c1` 20

Give recorded Oat, Wild plant response rating. `CCc1nn(C(C)(C)CC)nc1C(=O)Nc1cccc(C(=O)N(C)C)c1` 0

Give recorded Oat, Wild plant response rating. CCC1=NN(C(C)(C)C)CC1C(=O)Nc1cc(C(=O)N2CC=CC2)ccc1F (racemic) 20

Give recorded Oat, Wild plant response rating. `CCc1nn(C2CCCC2)nc1C(=O)Nc1cccc(C(=O)N(C)C)c1` 0

Give recorded Oat, Wild plant response rating. `CCNC(=S)c1ccc(F)c(NC(=O)c2cc(C(C)(C)C)nn2CC)c1` 10

Give recorded Oat, Wild plant response rating. `CCc1cn(C(C)(C)C)nc1C(=O)Nc1cccc(C(=O)N(C)C)n1` 0

----------
- Tested on: barnyardgrass
- testProtocol: Test C flooded paddy test
- Format: in vivo, Echinochloa crus-galli
- assayConditions: 125 g ai/ha, scale of 0 to 100, 0 is no effect, 100 is complete control
molecules and their reported Barnyardgrass plant response rating
Give your answer as a number; write no unit.

Record excerpt, results attached:
recordSmiles: CC(=NO)c1cccc(NC(=O)c2cc(C(C)(C)C)nn2C)c1
targetOfAssay: barnyardgrass
experimentalReadout: Barnyardgrass plant response rating
dataValue: 50
//
recordSmiles: CCC(=NO)c1cccc(NC(=O)c2cc(C(C)(C)C)nn2C)c1
targetOfAssay: barnyardgrass
experimentalReadout: Barnyardgrass plant response rating
dataValue: 20
//
recordSmiles: CCn1nc(C(C)(C)C)cc1C(=O)Nc1cc(C#N)ccc1F
targetOfAssay: barnyardgrass
experimentalReadout: Barnyardgrass plant response rating
dataValue: 0
//
recordSmiles: C#CCN(C)C(=O)c1ccnc(NC(=O)c2cc(C(C)(C)C)nn2CC)c1
targetOfAssay: barnyardgrass
experimentalReadout: Barnyardgrass plant response rating
dataValue: 60

Give recorded Barnyardgrass plant response rating. `CC(=NO)c1cccc(NC(=O)c2cc(C(C)(C)C)nn2CC(F)(F)F)c1` 0

Give recorded Barnyardgrass plant response rating. `CCn1nc(C(C)(C)C)cc1C(=O)Nc1cccc(C(=O)NC2CC2)n1` 0

Give recorded Barnyardgrass plant response rating. `CCn1nc(C(C)(C)C)cc1C(=O)Nc1cccc(C#N)c1` 40

----------
- Test system: cocklebur
- testProtocol: Test B pre-/postemergence herbicide test
- Format: in vivo, Xanthium strumarium
- assayConditions: postemergence, 125 g ai/ha; scale 0 to 100
- Description: […] At the same time, plants selected from these crop and weed species and also blackgrass (Alopecurus myosuroides Huds.), wheat (Triticum aestivum L.) and wild oat (Avena fatua L.) were treated with postemergence applications of test chemicals formulated in the same manner. […] Treated plants and controls were maintained in a greenhouse for 13 to 15 days, after which time all species were compared to controls and visually evaluated. […]
experimentalReadout: Cocklebur plant response rating
Give your answer as a number; write no unit.

Record excerpt, results attached:
recordSmiles: CCc1nn(C(C)(C)C)nc1C(=O)Nc1cccc(C(=O)N2CCCCC2)c1
Cocklebur plant response rating: 50
--
recordSmiles: CCN(CC)C(=O)c1cccc(NC(=O)c2nn(C(C)(C)C)nc2C)c1
Cocklebur plant response rating: 20

Give recorded Cocklebur plant response rating. `C=CCN(CC=C)C(=O)c1cccc(NC(=O)c2nn(C(C)(C)C)nc2C)n1` 0

Give recorded Cocklebur plant response rating. `CC(C)(C)n1nc(Br)c(C(=O)Nc2cccc(C(=O)N3CC=CC3)c2)n1` 40

----------
molecules and their reported Rice plant response rating
- Tested on: rice
- testProtocol: Test C flooded paddy test
- Format: in vivo, Oryza sativa
- assayConditions: 250 g ai/ha, scale of 0 to 100, 0 is no effect, 100 is complete control

Record excerpt, results attached:
recordSmiles: Cc1nn(C(C)(C)C)cc1C(=O)Nc1cc(C(=O)N(C)C)ccc1F
Rice plant response rating: 0

recordSmiles: CCc1cn(C(C)(C)C)nc1C(=O)Nc1cc(C(=O)N(C)CC)ccn1
Rice plant response rating: 25

recordSmiles: CCc1nc(C(C)(C)C)sc1C(=O)Nc1cccc(C(=O)NCC2CC2)n1
Rice plant response rating: 0

recordSmiles: C#CCN(C)C(=O)c1ccnc(NC(=O)c2cc(C(C)(C)C)nn2CC)c1
Rice plant response rating: 75

# return Rice plant response rating of `CCc1nn(C(C)(C)CC)nc1C(=O)Nc1cccc(C(=O)N(C)C)c1` (system: rice) 90

----------
- Tested on: woolly cupgrass
- testProtocol: Test C pre-/postemergence herbicide test
- Format: in vivo, Eriochloa villosa
- assayConditions: 62 g ai/ha; preemergence; scale 0 to 100
experimentalReadout: Plant response rating, Cupgrass, Woolly
Give your answer as a number; write no unit.

molecule: CCn1nc(C2(C)CC2)cc1C(=O)Nc1cccc(C(=O)N2CC=CC2)c1 [Compound 304]
experimentalReadout: Plant response rating, Cupgrass, Woolly
dataValue: 5
--
molecule: CCn1nc(C(C)(C)C)cc1C(=O)Nc1cncc(C(=O)N(C)C)n1 [Compound 287]
experimentalReadout: Plant response rating, Cupgrass, Woolly
dataValue: 0
--
molecule: CCc1nn(C(C)(C)C)cc1C(=O)Nc1cccc(C(C)=NO)c1 [Compound 188]
experimentalReadout: Plant response rating, Cupgrass, Woolly
dataValue: 0

Would you kindly look at the next entry?
Give recorded Plant response rating, Cupgrass, Woolly. CCN1N=C(C(C)(C)C)CC1C(=O)Nc1cc(C(=O)N2CCCC2)ccc1F (racemic) [Compound 309] 40

----------
- System: barnyardgrass
- testProtocol: Test B flooded paddy test
- Type: in vivo, Echinochloa crus-galli
- assayConditions: 1000 g ai/ha, visual rating, scale 0 to 100 (0 no effect, 100 complete control), 13 to 15 days
molecules and their reported Barnyardgrass plant response rating

Record excerpt, results attached:
recordSmiles: CCc1nn(C(C)(C)C)cc1C(=O)Nc1cccc(C(C)=NO)c1
targetOfAssay: barnyardgrass
Barnyardgrass plant response rating: 60
//
recordSmiles: C=CCOC(=O)c1cccc(NC(=O)c2cc(C(C)(C)C)nn2CC)c1C
targetOfAssay: barnyardgrass
Barnyardgrass plant response rating: 20

Would you kindly look at the next entry?
Give recorded Barnyardgrass plant response rating. `CCCCn1nc(C(C)(C)C)cc1C(=O)Nc1cccc(C(=O)NCC)c1` 50

----------
molecules and their reported Plant response rating (0 to 100 scale), Pigweed
- Tested on: pigweed
- testProtocol: Test B pre-/postemergence herbicide test
- Format: in vivo, Amaranthus retroflexus
- assayConditions: 125 g ai/ha; 0 is no effect, 100 is complete control; preemergence
Give your answer as a number; write no unit.

molecule: CCC1=NN(C(C)(C)C)CC1C(=O)Nc1cc(C(=O)N2CC=CC2)ccc1F (racemic)
dataValue: 100
//
molecule: C#CCNC(=O)c1cccc(NC(=O)c2nn(C(C)C)nc2CC)c1
dataValue: 20
//
molecule: C#CCNC(=O)c1cccc(NC(=O)c2nn(C(C)(C)C)nc2CC)c1
dataValue: 100
//
molecule: C=CCOc1cccc(NC(=O)c2cc(C(C)(C)C)nn2CC)c1
dataValue: 50
//
molecule: C#CCNC(=O)c1cccc(NC(=O)c2cc(C(C)(C)C)nn2C)n1
dataValue: 0
//
molecule: CCNC(=O)c1cccc(NC(=O)c2nn(C(C)C)nc2C)c1
dataValue: 10

Would you kindly look at the next entry?
Give recorded Plant response rating (0 to 100 scale), Pigweed. `Cc1nn(C(C)(C)C)nc1C(=O)Nc1cccc(C(=O)N(C)C)c1` 100

----------
compounds and their reported Wheat plant response rating
- Test system: wheat
- testProtocol: Test B postemergence herbicide test
- Assay type: in vivo, Triticum aestivum
- Design: key: 0 = no effect, 100 = complete control
- assayConditions: 125 g ai/ha; visual rating, scale 0 (no effect) to 100 (complete control); postemergence
Give your answer as a number; write no unit.

compound: Cc1nn(C(C)(C)C)cc1C(=O)Nc1cc(C(=O)N(C)C)ccc1F
Wheat plant response rating: 0

Give recorded Wheat plant response rating. CCC1=NN(C(C)(C)C)CC1C(=O)Nc1cc(C(=O)N2CCCC2)ccc1F (racemic) 10

Give recorded Wheat plant response rating. `Cc1nn(C(C)(C)C)nc1C(=O)Nc1cccc(C(=O)N(C)C)c1` 0

Give recorded Wheat plant response rating. `CCc1nn(C(C)(C)C)nc1C(=O)Nc1cc(C(=O)N2CCCCC2)ccc1F` 10

Give recorded Wheat plant response rating. CCN1N=C(C(C)(C)C)CC1C(=O)Nc1cc(C(=O)N2CCCC2)ccc1F (racemic) 20

Give recorded Wheat plant response rating. `C=CCN(CC=C)C(=O)c1cccc(NC(=O)c2nn(C(C)C)nc2CC)c1` 0
